Values compiled from the supplement of paper PMC4466140.

# SYSTEM TESTED: CaRvs167-3
# ASSAY PROTOCOL: SPOT peptide array binding signal intensity (averaged, normalized) (arbitrary units (background-subtracted, floor 0; scale differs between SH3 domains)); higher = stronger binding of the SH3 domain to the peptide
VALUE KIND: SPOT peptide array binding signal intensity
Simply state the number, no unit and no words.

Reported SPOT peptide array binding signal intensity for PPIPNAPLSPAPAVP : what is it? 2.5

Any idea what its SPOT peptide array binding signal intensity is? The binder is VSKLRSPNTPRRLRK 28.2

Need SPOT peptide array binding signal intensity, item VPKEPAPAPPPEPDM 3.25

Which value of SPOT peptide array binding signal intensity has been reported for GERSRPLVISILSSA in the records? 538

# input binder: RKRAPTPPAPSRSEK ; wanted: its SPOT peptide array binding signal intensity 20.2
